EXPERIMENT_SUMMARY: Microsomal stability in vitro assay
Assay type: in vitro ADME
EXPERIMENTAL_SETUP: pooled rat liver microsomes, 4 μM compound, NADPH
Measured Microsomal Stability, Percent Remaining @ 1 hour, listed per entry.
MEASUREMENT_NAME: Microsomal Stability, Percent Remaining @ 1 hour

[[record]]
smiles_str = "Cc1cc2c(cc1C(F)(F)F)NC(=O)CC(c1cccc(Sc3ncccn3)c1)=N2"
data_value = "90%"

[[record]]
smiles_str = "O=C1CC(c2cccc(-c3cccnc3)c2)=Nc2ccc(Br)cc2N1"
data_value = "30%"

[[record]]
smiles_str = "O=C(O)c1cc(-c2cccc(-c3nsc(-c4ccccc4)n3)c2)ccc1F"
data_value = "2%"

[[record]]
smiles_str = "O=C(O)c1cc(F)cc(-c2cccc(-c3nc(-c4ccc(C(F)(F)F)nc4)cc(C(F)(F)F)n3)c2)c1"
data_value = "95%"

[[record]]
smiles_str = "O=C(O)c1cc(-c2cccc(-c3nc(-c4ccsc4)cc(C(F)(F)F)n3)c2)ccc1F"
data_value = "83%"

[[record]]
smiles_str = "O=C(O)c1ccc(F)c(-c2cccc(-c3nc(-c4ccc(C(F)(F)F)nc4)cc(C(F)(F)F)n3)c2)c1"
data_value = "82%"

[[record]]
smiles_str = "O=C(O)c1cc(F)cc(-c2cccc(-c3csc(-c4ccccc4)n3)c2)c1"
data_value = "4%"

